This collection of values is drawn from PubChem BioAssay AID330.

# Tested on: P388 leukemia ip, CD2F1 mice, survival T/C
# assay-overview: NCI In Vivo Anticancer Drug Screen. Data for tumor model P388 Leukemia (intraperitoneal) in CD2F1 (CDF1) mice
# settings: endpoint: median survival time; dose: 50.0 mg/kg/injection; schedule: Q01DX005 (ip); vehicle: saline; higher = longer survival
Inconclusive results and toxic doses are left out.
Examples of compounds with documented T/C follow.

compound=CN(C)CCCN1CN(CCCN(C)C)CN(CCCN(C)C)C1 measurement_name=T/C observed_result="99 % of control"
compound="CC(NC(=O)CNC(=O)CN)C(N)=O (stereo not given)" measurement_name=T/C observed_result="101 % of control"
compound="CCCC(O)CCC(O)=C1C(=O)CCC1=O (stereo not given)" measurement_name=T/C observed_result="107 % of control"

### Prompt Reported T/C for "N#Cc1cc2ccccc2nc1SN" : what is it?
### Response 100 % of control

### Prompt Find the recorded T/C belonging to CC1=CCCN(C)C1c1ccccc1 (stereo not given) and report it.
### Response 99 % of control

### Prompt Could you share which T/C value was measured for CC1CC(C(=O)O)N1 (stereo not given) ?
### Response 101 % of control

### Prompt // returns reported T/C for input CNC(=O)OCC1(OC(=O)NC)OC(COC(=O)NC)(OC(=O)NC)C(OC(=O)NC)C1OC(=O)NC (stereo not given)
### Response 104 % of control

### Prompt Look at this compound and give its reported T/C. CC12CCC(O1)C1C(=O)NC(=O)C12 (stereo not given)
### Response 102 % of control

### Prompt Given the compound "Cn1c(=O)n2n(c1=O)C1CCC2CC1" , what is its reported T/C?
### Response 98 % of control

### Prompt Can you share its T/C? I mean this compound: CSCCC(NC=O)C(=O)O (stereo not given)
### Response 98 % of control
